Source of measurements: PubChem BioAssay AID488890

- test: growth inhibition of non-replicating M. tuberculosis (AID 488890);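 further: plate controls were DMSO cells for no effect and high antibiotic wells for full effect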
- cond: Mycobacterium tuberculosis non-replicating, at 25 µM, stronger effect = higher value
Screen size: about 320,000 compounds; about 1,300 (0.41%) were called active. Roughly 3% stayed inconclusive and do not appear here. These entries were drawn from the full list. Results with a measured potency or affinity are listed apart.
Threshold check on inhibition: at or above 10% gives 1.0, strictly below gives 0.0.

Past entries and their recorded results:
molecule	class_label
NC(=O)CCN(C(=O)c1cccc(S(=O)(=O)N2CCc3ccccc32)c1)c1ccccc1	1.0
O=C(O)c1ccc(NCc2nc3ccccc3n2CCOc2ccccc2Cl)cc1	1.0
N/C(=N\OC(=O)c1ccc(Cl)cc1)c1ccccn1	1.0

Decide: inhibition of "O=C(N/N=C/c1ccc([N+](=O)[O-])cc1)c1cc2ccccc2o1" >= 10%? 0.0

Is reported inhibition greater than or equal to 10% here: "CCCC(=O)Nc1ccc(C(=O)NNC(=S)NC(=O)c2cccs2)cc1" 0.0

Entry "Cc1nn(Cc2ccccc2Cl)c(C)c1NC(=O)c1noc(C(C)C)c1[N+](=O)[O-]" : is its inhibition no less than 10%? 0.0

For this molecule, is measured inhibition 10% or higher? "Nc1nc2ccccc2n1CCOc1ccc(F)cc1" 1.0

Does inhibition meet or surpass 10% for "Cc1nc(SCCc2ccccc2)[nH]c(=O)c1C" ? 1.0

Reported inhibition at or above 10%? "Cc1ccc2oc(=O)c(/C=C(\O)C(C)(C)C)nc2c1" 0.0

I'd appreciate it if you could say whether Cc1nn(Cc2ccccc2)c2c1C(c1ccc(Cl)cc1)C(C#N)=C(N)O2 (centres undefined) has inhibition at least equal to 10%. 1.0

Decide: inhibition of COc1ccc(CN(CC2CCC(C(=O)O)CC2)C(=S)Nc2cc(Cl)ccc2OC)cc1 (centres undefined) >= 10%? 0.0

Could you verify whether the entry "N/C(=N\OC(=O)c1ccccc1Cl)c1cccc([N+](=O)[O-])c1" shows inhibition of no less than 10%? 1.0

inhibition >= 10% for "N/C(=N\OC(=O)c1ccc(Cl)cc1)c1ccc(Cl)cc1" ? 1.0

Confirm if inhibition reported for the molecule "Nc1nc2ccccc2n1CCOc1ccc(Cl)cc1" is 10% or above. 1.0

Can "CCCOc1ccc(C(=O)Nc2ccc(NC(=O)c3cccs3)cc2)cc1" be said to have inhibition at or above 10%? 0.0

Please indicate if the recorded inhibition for Cc1ccc(NC(=O)CC(C)c2ccccc2)cc1S(=O)(=O)N1CCOCC1 (centres undefined) meets or exceeds 10%. 1.0

Reported inhibition reaches at least 10% for "CCS(=O)(=O)CCSc1nc2ccccc2o1" ? 0.0

Determine whether this molecule has inhibition no lower than 10%: "Cc1ccc(C)c(N2N=C(C(=O)O)CCC2=O)c1" 0.0

Please tell me: is the molecule "Cc1ccc2oc(=O)c(/C=C(\O)CC(C)C)nc2c1" at or over 10% in terms of inhibition? 0.0

Record "CN(C(=O)c1ccccc1C(=O)OCC(=O)NCc1cccs1)C1CCCCC1" ; criterion: inhibition no lower than 10%. Met? 0.0

Decide: is the reported value of inhibition for CC1CC(C)CN(S(=O)(=O)c2ccc3oc(=O)ccc3c2)C1 (centres undefined) equal to or greater than 10%? 0.0

Given the entry "CC(=O)Nc1nc2ccccc2n1CCN(C)C" , answer whether its inhibition meets or surpasses 10%. 1.0

Can "Nc1nonc1C(=O)N/N=C/c1ccc(Br)o1" be said to have inhibition at or above 10%? 0.0

Is inhibition for "Cc1nn2c(NCCCN(C)C)c3c(nc2c1-c1ccccc1)CCCC3" at or above 10%? 1.0
